# Target Desc: furin, P09958;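 further: purified furin at 1:10 enzyme:substrate in 50 mM HEPES pH 7.5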
# Sequence (P09958 whole entry): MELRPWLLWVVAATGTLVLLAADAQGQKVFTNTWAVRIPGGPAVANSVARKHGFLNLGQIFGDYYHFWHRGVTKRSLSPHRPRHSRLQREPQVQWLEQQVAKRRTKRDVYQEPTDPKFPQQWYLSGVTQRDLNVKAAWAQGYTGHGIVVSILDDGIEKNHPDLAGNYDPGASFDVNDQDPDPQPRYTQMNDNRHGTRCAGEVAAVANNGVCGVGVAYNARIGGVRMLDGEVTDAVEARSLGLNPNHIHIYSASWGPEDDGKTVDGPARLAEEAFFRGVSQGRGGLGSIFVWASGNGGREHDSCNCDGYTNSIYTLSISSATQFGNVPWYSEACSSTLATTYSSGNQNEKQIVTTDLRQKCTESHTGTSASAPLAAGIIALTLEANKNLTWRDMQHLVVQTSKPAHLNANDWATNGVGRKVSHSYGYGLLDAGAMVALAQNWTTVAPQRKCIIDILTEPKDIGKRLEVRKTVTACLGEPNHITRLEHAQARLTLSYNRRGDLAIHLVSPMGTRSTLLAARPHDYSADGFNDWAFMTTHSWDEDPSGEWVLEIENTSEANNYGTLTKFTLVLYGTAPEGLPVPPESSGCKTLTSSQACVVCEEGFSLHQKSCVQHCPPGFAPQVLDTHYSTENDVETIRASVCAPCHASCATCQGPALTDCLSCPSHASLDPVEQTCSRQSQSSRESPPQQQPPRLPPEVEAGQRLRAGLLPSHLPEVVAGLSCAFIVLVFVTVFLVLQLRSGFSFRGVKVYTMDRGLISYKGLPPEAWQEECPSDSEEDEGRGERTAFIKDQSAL
# Measurement Notes: furin cleavage Z-score vs untreated control; higher = more cleavage, active = 3.5 or more, inactive = 1 or less, 8 variable residues between constant flanks
# Study Conditions: 15 min
This is one part of the list. No count for the full screen is at hand.
# valid calls are active, inactive; nothing else

>>> label_value("CARLKRIISHAGNASASA [FS-2706]")
"inactive"
>>> label_value("CAWIWFCLLLAGNASASA [HC1656]")
"inactive"
>>> label_value("CAVLVRKRRAAGNASASA [FS-1178]")
"active"
>>> label_value("CAVLVVLLLFAGNASASA [HC346]")
"inactive"
>>> label_value("CAGGPRKRRAAGNASASA [FS-26]")
"active"

Continue with the sequence presented below.
Q) Short answer needed: outcome of this test for CASQRRKRRAAGNASASA [FS-381] ?
A) active
